Data credit: ChEMBL document CHEMBL4229342

- System: CCRF-CEM
- Run Description: Antiproliferative activity against human CCRF-CEM cells assessed as cell viability at 200 uM after 72 hrs by MTT assay
- Assay type: functional
- Assay Setup: read-out: Activity
Measured Quantity: viability at 200 µM (%)
Report the value in % with no unit label.

Asked: # return recorded viability at 200 µM for entry CC(Cn1cnc2c1c(=O)n(C)c(=O)n2C)OCc1cn(-c2cccc3ccccc23)nn1 (centres undefined)
Given back: 4.1

Asked: Output measured viability at 200 µM for this item: COC(C(=O)OC(C)Cn1cnc2c1c(=O)n(C)c(=O)n2C)c1cccc2ccccc12 (centres undefined)
Given back: 34.6

Asked: Give reported viability at 200 µM value for CC(Cn1cnc2c1c(=O)n(C)c(=O)n2C)OC(=O)CC(=O)c1ccccc1 (centres undefined)
Given back: 38.5

Asked: Look up and state reported viability at 200 µM for CC(Cn1cnc2c1c(=O)n(C)c(=O)n2C)OC(=O)Nc1ccccc1 (centres undefined)
Given back: 38.5
